Test system: Histiocytoma U937 cells
Assay: Spontaneous and maximum release of labeled compound, time-resolved fluorometric assay (Eu assay)
Type: cell-based
Conditions: U937 cells labeled with 25 μM compound for 15 min; lysed with 0.125% digitonin in 19% DMSO; time-resolved fluorescence with europium solution
assay-metric: maximum release (B)

In [3]: df
Out[3]:
                    structure_smiles_string  measured_value
0  CCCC(=O)OCOC(=O)c1cccc(-c2cc(OCCOCCO)cc(-c3cccc(C(=O)OCOC(=O)CCC)n3)n2)n1           63594
1  CCCNC(=O)COc1cc(-c2cccc(C(=O)OCOC(C)=O)n2)nc(-c2cccc(C(=O)OCOC(C)=O)n2)c1           60521
2  CCCC(=O)OCOC(=O)c1cccc(-c2cc(OCCO)cc(-c3cccc(C(=O)OCOC(=O)CCC)n3)n2)n1           65576
3  CC(=O)OCOC(=O)c1cccc(-c2cc(OCCO)cc(-c3cccc(C(=O)OCOC(C)=O)n3)n2)n1           69372
